TGI reference
- Test system: LXFL 529 NSCLC
- experiment-notes: NCI tumour cell line growth inhibition, 48 h

Use the examples below as a reference point.
molecule	tested-on	TGI
CCN(CC)CCNc1c2ccccc2nc2cccc([N+](=O)[O-])c12	LXFL 529 NSCLC	0.0843 µM
O=C(Nc1cccc(C(F)(F)F)c1)C(=O)C(C(=O)c1ccc(Cl)c(Cl)c1)C1OC(=O)c2ccccc21 (stereo unspecified)	LXFL 529 NSCLC	> 100 µM
Cc1noc2cccc(O)c12	LXFL 529 NSCLC	> 100 µM

// TGI lookup, key: O=C(NCCCCCCCCCCCCNC(=O)c1cnc2ccccc2n1)c1cnc2ccccc2n1
> 100 µM

# lookup: TGI of CCCCCCCCSC(=O)NCCCC
> 100 µM

What TGI value was documented for this molecule, CC(=O)Nc1ccccc1-c1nc2ccccc2nc1-c1ccccc1 ?
> 100 µM
